Answer each item with its documented composite z-score.
experiment: small-molecule microarray binders of probe aLefty2, primary screen, biochemical, biotinylated probe, 635/667 nm fluorescence (AID 1094); details: higher = more signal;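 further: score merges spot fluorescence near 667 nm with spot signal-to-noise ratio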
One number for each entry.

O=C(c1ccccc1)N1Cc2ccccc2[C@@H]2OC(c3ccc(OCCCO)cc3)=N[C@]2(Cc2ccccc2)C1=O; 0.0337

Batch of 5 compounds: report composite z-score for each.
1. C#CCN(CC1=CCCCC1)[C@H](c1ccccc1Br)[C@@H](O)Cc1ccccc1
2. CCOC(=O)C[C@H]1[C@H](OC(=O)Cc2ccc3c(c2)OCO3)[C@@H](NC(=O)c2ccc3ccccc3c2)c2cc(OCCCO)ccc2N1C(=O)c1ccccc1
3. CN(C)CCCCCCNC(=O)[C@@H]1C[C@@H]2C(=O)N[C@@H](CCCCN)C(=O)N2[C@@H]1c1cccc(OCCO)c1
4. COc1ccc(C(O)C2C=CC3C(=O)N(C)C(=O)C3N2N2CCCCC2)c2ccccc12 (stereo not given)
5. CCCCN1CC=CC23O[C@@H]4C=CCOC(=O)[C@@H]4[C@H]2C(=O)N(CCCCCO)[C@@H]3C1=O (stereo not given in full)

Response line:
1: -0.0724; 2: -0.0961; 3: 1.65; 4: 0.168; 5: 0.0695

Batch of 6 compounds: report composite z-score for each.
1. CC(C)C[C@@H]1NC(=O)[C@H]2C[C@@H](C(=O)NCCCCCCN(C)C)[C@@H](c3ccc(O)cc3)N2C1=O
2. CC1CC/C=C\[C@H]2OC34C=CCN(C(C)(C)C)C(=O)[C@H]3N(CCCCCCO)C(=O)[C@@H]4C2C(=O)O1 (stereo not given in full)
3. Cc1ccc(C(C)CC(O)C2C=CC3C(=O)N(C)C(=O)C3N2NC(=O)OC(C)(C)C)o1 (stereo not given)
4. Cc1ccc(C(C)CC(O)C2C=CC3C(=O)N(c4ccccc4)C(=O)C3N2Nc2ccc([N+](=O)[O-])cc2)o1 (stereo not given)
5. CCOC(=O)C[C@H]1[C@H](OC(=O)c2cc3ccccc3oc2=O)[C@@H](NC(=O)Cc2ccc(OC)cc2)c2cc(OCCCO)ccc2N1C(=O)c1ccccc1
6. CCCCCN1CC=CC23O[C@@H]4/C=C\CCCOC(=O)C4[C@H]2C(=O)N(C(CO)C(C)C)[C@@H]3C1=O (stereo not given in full)

Response line:
[0.0829, -0.183, 0.0682, 0.157, -0.139, -0.124]

Batch of 6 compounds: report composite z-score for each.
1. O=C1O[C@@H](c2ccccc2)[C@@H](c2ccccc2)N2[C@@H](c3ccccc3OCCO)[C@]3(C(=O)Nc4ccc(C#CC5=CCCCC5)cc43)[C@@H](C(=O)Nc3nc4ccccc4s3)[C@H]12
2. COC(=O)[C@@]1(Cc2ccc(OC)cc2)[C@H]2c3cc(C(=O)N4CCCC4)n(Cc4ccc(OC)c(OC)c4)c3C[C@H]2CN1C(=O)c1ccccc1
3. CN1C(=O)C2C=CC(C(O)c3cccs3)N(Nc3ccccc3)C2C1=O (stereo not given)
4. COC(=O)C(CC#Cc1ccc2c(c1)[C@]1(C(=O)N2)[C@H](C(=O)O)[C@H]2C(=O)O[C@H](c3ccccc3)[C@H](c3ccccc3)N2[C@@H]1c1ccc(O)cc1)C(=O)OC
5. CC(C)(C)OC(=O)CC[C@@]1(C(=O)NCC(O)CO)N=C(c2ccc(OCCCO)cc2)O[C@@H]1c1ccccc1N=[N+]=[N-] (stereo not given in full)
6. COCCOC(=O)N1C(=O)[C@@]2(c3cc(C#CC4=CCCCC4)ccc31)[C@H](C(=O)Nc1nc3ccccc3s1)[C@H]1C(=O)O[C@H](c3ccccc3)[C@H](c3ccccc3)N1[C@@H]2c1ccc(OCCO)cc1

Response line:
0.123
1.2
0.139
-0.188
0.247
-0.119

Batch of 5 compounds: report composite z-score for each.
1. OC([C@@H]1CC(c2ccccc2)=NO1)[C@H]1CC(c2ccccc2)=NO1 (stereo not given in full)
2. C#CCN(Cc1ccccc1Br)C(/C=C/c1ccccc1)CO (stereo not given)
3. [N-]=[N+]=NCc1ccccc1C[C@]1(C(=O)N2CCOCC2)N=C(c2ccc(OCCCO)cc2)O[C@H]1c1ccccc1N=[N+]=[N-]
4. C=CCN(Cc1ccccc1)C(=O)C(c1cccs1)N(CCOCCO)C(=O)/C=C\C(=O)O (stereo not given)
5. COc1ccc(CCNC(=O)[C@@H]2c3ccccc3C(=O)N(C3Cc4ccccc4C3)[C@H]2c2ccc(CO)cc2)cc1

Response line:
[-0.0748, -0.144, 0.349, -0.0555, 0.0349]

###

Answer each item with its documented composite z-score.
system: glycogen synthase kinase-3 (GSK3A per assay name; protocol says GSK3B); assay: GSK3 binders on small-molecule microarrays, primary screen, biochemical, small-molecule microarray, 635 nm fluorescence, GSK3A (AID 1103); details: small-molecule microarray binding, fluorescence 635 nm; higher = more signal; further: the record names both GSK3A and GSK3B
Give bare numbers.

CN(C)CCCCCCNC(=O)[C@@H]1C[C@@H]2C(=O)N[C@@H](CCCCN)C(=O)N2[C@@H]1c1cccc(OCCO)c1; 1.47
C=CCN(Cc1ccccc1)C(=O)C(c1cccs1)N(CCOCCO)C(=O)/C=C\C(=O)O (centres undefined); -0.869
COc1cc(OC)c(C(O)C2C=CC3C(=O)NC(=O)C3N2Nc2ccc(Cl)cc2Cl)cc1Br (centres undefined); 0.0735

Note: attention shifts to another entry.
Reading of composite z-score for `COCCOC(=O)N1C(=O)[C@@]2(c3cc(C#CCNC(N)=O)ccc31)[C@H](C(=O)NC[C@H](O)c1ccccc1)[C@H]1C(=O)O[C@H](c3ccccc3)[C@H](c3ccccc3)N1[C@@H]2c1ccccc1OCCO` with glycogen synthase kinase-3 (GSK3A per assay name; protocol says GSK3B): 0.628

###

biological target: NADPH oxidase 5 (Homo sapiens) (UniProt Q96PH1); assay: NOX5-dependent H2O2 signal modulators, primary screen, NOX inhibitor project, cell-based, HEK293-NOX5, Amplex Red fluorescence (AID 1161); details: HEK293-NOX5, ionomycin, 45 min, higher = more signal
Sequence (Q96PH1 whole entry, looked up): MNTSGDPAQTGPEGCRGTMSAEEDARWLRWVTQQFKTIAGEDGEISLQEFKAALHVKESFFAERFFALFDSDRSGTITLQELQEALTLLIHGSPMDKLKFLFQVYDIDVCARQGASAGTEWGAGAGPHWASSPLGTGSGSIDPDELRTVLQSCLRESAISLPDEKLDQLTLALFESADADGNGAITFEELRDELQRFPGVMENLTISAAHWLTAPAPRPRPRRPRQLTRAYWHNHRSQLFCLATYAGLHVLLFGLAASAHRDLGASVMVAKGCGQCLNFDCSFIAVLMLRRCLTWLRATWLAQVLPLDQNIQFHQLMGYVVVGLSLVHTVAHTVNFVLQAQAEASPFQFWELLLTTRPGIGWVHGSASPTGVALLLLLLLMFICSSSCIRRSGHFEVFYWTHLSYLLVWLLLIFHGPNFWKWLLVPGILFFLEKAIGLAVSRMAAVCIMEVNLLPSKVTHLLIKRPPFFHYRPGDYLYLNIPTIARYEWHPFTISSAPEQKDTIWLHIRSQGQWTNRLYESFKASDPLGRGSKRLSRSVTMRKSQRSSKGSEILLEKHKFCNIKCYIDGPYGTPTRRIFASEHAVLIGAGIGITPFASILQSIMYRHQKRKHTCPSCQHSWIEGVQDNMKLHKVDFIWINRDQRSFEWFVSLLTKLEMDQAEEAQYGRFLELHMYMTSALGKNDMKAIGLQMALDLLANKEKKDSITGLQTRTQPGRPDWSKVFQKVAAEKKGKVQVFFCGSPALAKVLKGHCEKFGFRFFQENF
Short version: z-score at least 0.2 is True, less is False.

Prompt line: I'd appreciate it if you could say whether `COCCOC(=O)N1C(=O)[C@@]2(c3ccccc31)[C@H](c1ccc(O)cc1)N1[C@H](c3ccccc3)[C@H](c3ccccc3)OC(=O)[C@H]1[C@@H]2C(=O)NC[C@H](O)c1ccccc1` has z-score at least equal to 0.2.
Response line: True

Prompt line: I'd appreciate it if you could say whether CC(=O)n1cc(C(O)C2C=CC3C(=O)N(C)C(=O)C3N2Nc2ccccc2)c2ccccc21 (stereo not given) has z-score at least equal to 0.2.
Response line: False

Prompt line: I'd appreciate it if you could say whether O=C1NC(=O)C2C1C=CC(C(O)Cc1ccccc1)N2Nc1ccc(Cl)cc1Cl (stereo not given) has z-score at least equal to 0.2.
Response line: False

Prompt line: I'd appreciate it if you could say whether `CN(C)CCCCCCNC(=O)[C@@H]1C[C@@H]2C(=O)N[C@@H](CCCCN)C(=O)N2[C@@H]1c1cccc(OCCO)c1` has z-score at least equal to 0.2.
Response line: True

Prompt line: I'd appreciate it if you could say whether `CCCC#C[Si](O[C@H](CC)c1cn([C@H](CO)Cc2ccccc2)nn1)(C(C)C)C(C)C` has z-score at least equal to 0.2.
Response line: True

Prompt line: I'd appreciate it if you could say whether O=C1OCCC/C=C\[C@H]2OC34C=CCN(Cn5nnc6ccccc65)C(=O)[C@H]3N(CCCCCCO)C(=O)[C@@H]4C12 (stereo not given in full) has z-score at least equal to 0.2.
Response line: True

Prompt line: I'd appreciate it if you could say whether `O=C(NCC(F)(F)F)[C@@H]1c2ccccc2C(=O)N(C2CCCCC2)[C@H]1c1ccc(CO)cc1` has z-score at least equal to 0.2.
Response line: True

Prompt line: I'd appreciate it if you could say whether `CCOC(=O)[C@H]1C/C=C/C[C@H](C(=O)OCC)C(=O)O[C@H]2[C@@H](OC)O[C@H](CO)[C@@H](OC(=O)Nc3ccc(C#N)cc3)[C@@H]2OC1=O` has z-score at least equal to 0.2.
Response line: True

Prompt line: I'd appreciate it if you could say whether OC([C@@H]1CC(c2ccccc2)=NO1)[C@H]1CC(c2ccccc2)=NO1 (stereo not given in full) has z-score at least equal to 0.2.
Response line: True

Prompt line: I'd appreciate it if you could say whether `CN(C)CCCNC(=O)[C@@]1(C)c2ccccc2C(=O)N(Cc2cc(F)cc(C(F)(F)F)c2)[C@H]1c1ccc(CO)cc1` has z-score at least equal to 0.2.
Response line: True

Prompt line: I'd appreciate it if you could say whether `CCCC[C@@H]1C[C@H]1[C@@H](NC(=O)c1ccco1)c1ccc(C(=O)OC)cc1` has z-score at least equal to 0.2.
Response line: True

Prompt line: I'd appreciate it if you could say whether `COc1ccc(C(=O)Nc2ccc(CN3C(=O)[C@@]4(O[C@@H](CCO)[C@H]([Si](C)(C)c5ccc(OC)cc5)[C@H]4C)c4ccccc43)cc2)cc1` has z-score at least equal to 0.2.
Response line: False

Prompt line: I'd appreciate it if you could say whether `COCCCN1C(=O)[C@@]2(Cc3ccccc31)c1ccccc1C(=O)N(Cc1ccccc1C(F)(F)F)[C@H]2c1ccc(CO)cc1` has z-score at least equal to 0.2.
Response line: True

Prompt line: I'd appreciate it if you could say whether `[N-]=[N+]=NCc1ccccc1[C@H]1OC(c2ccc(OCCCO)cc2)=N[C@@]1(Cc1ccccc1)C(=O)NCc1ccccc1` has z-score at least equal to 0.2.
Response line: False

Prompt line: I'd appreciate it if you could say whether C=CCC(OC(C)=O)[C@@H]1[C@@H](N(Cc2cccc3ccccc23)C(=O)c2ccc(-c3ccccc3)cc2)c2cc(OCCCO)ccc2N1C(=O)Cc1ccc(OC)cc1 (stereo not given in full) has z-score at least equal to 0.2.
Response line: False
